Data origin, for the record: PubChem BioAssay (NCI)

test system: EKVX NSCLC; test: NCI tumour cell line growth inhibition, 48 h
Measured attribute: TGI

>  <Compound>
C/C(=N\NC(=S)N(C)C)c1ncc[nH]1

>  <TGI>
> 100 µM

$$$$
>  <Compound>
O=C(Cc1ccccc1)N/N=C(/CCN1CCCC1)CC(c1ccccc1)c1c(O)c2ccccc2oc1=O (stereo unspecified)

>  <TGI>
> 100 µM

$$$$
>  <Compound>
N#C/C(=C\c1ccc(Cl)cc1)c1nc2ccccc2c(=O)[nH]1

>  <TGI>
> 100 µM

$$$$
>  <Compound>
Cn1cnc2c(F)c(Nc3ccc(Br)cc3Cl)c(C(=O)NOCCO)cc21

>  <TGI>
> 100 µM

$$$$
>  <Compound>
CN(C)c1cccc2[nH]c(-c3[nH]ncc3Nc3ccnc(N)n3)nc12

>  <TGI>
0.998 µM

$$$$
>  <Compound>
COc1ccc2c(c1)[nH]c(=O)c1c3cccnc3cn21

>  <TGI>
> 94.5 µM

$$$$
>  <Compound>
COC(=O)/C=C/c1cc(OC)c2c(c1)C(C(=O)OC)C(c1ccc(OC)c(OC)c1)O2 (stereo unspecified)

>  <TGI>
> 100 µM

$$$$
>  <Compound>
O=C(Nc1ccccc1)N1CCNC1=S

>  <TGI>
> 100 µM

$$$$
>  <Compound>
O=C(CNC(=O)c1cccc2ccccc12)Nc1ccccc1Oc1cccc(O)c1

>  <TGI>
> 25 µM

$$$$
>  <Compound>
c1ccc(-c2nc(Nc3ccc(-c4nc5ccccc5[nH]4)cc3)nc(N3CCOCC3)n2)cc1

>  <TGI>
3.42 µM

$$$$

Proceeding to the next compound to report its TGI.
GET /values?readout=TGI&item= C1=CCN(c2ccccc2)CC1
> 100 µM
